// provenance: the supplement of paper PMC9170038

For each of the sequences below, state its apparent KD of K4 kissing-loop reporter.
Tested on: K4 kissing-loop RNA reporter;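 also: bound reporter read as fluorescence of individual clusters on recovered sequencing chips by microscopy, with normalized cluster intensities fitted with a binding model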
EXPERIMENT: apparent KD of K4 kissing-loop reporter; higher = weaker reporter binding
COND: Eterna round: R107; input ligand: arginine 13.2 mM
Lab book: enter the figure in nM, no units written.

Look up apparent KD of K4 kissing-loop reporter with K4 kissing-loop RNA reporter for this sequence: CUCACAGUGAUGUUGUGGGCCGAGAGUGAUACCAGCCGUAUUUGUGGCCCUUGGCAGCGCAAAAGCCGAGUGAUGUUCGAAUCGG [Same State Theophylline A GF 24] 196

Look up apparent KD of K4 kissing-loop reporter with K4 kissing-loop RNA reporter for this sequence: UAAUAUAAUCUGUCGUUUACAAUAUUUAGUCAGGAUAUCGUAUAUUCGAGAAGGGACACUAUCUAGUGAUGUUAGAUAUUUCGUU [JR_ExcFMNA_Sub015] 81.4

Look up apparent KD of K4 kissing-loop reporter with K4 kissing-loop RNA reporter for this sequence: CCGAAGAACCAGUGAUGUUGGUUGACUAGACAGGAUAUGAGCAACAUCAGAAGGGUCUGGCUUCGGGAGAGAGUCGCGCUGACCU [Anditebier] 350

Look up apparent KD of K4 kissing-loop reporter with K4 kissing-loop RNA reporter for this sequence: GGCAGUGAUGUUGCCAGUGGCAGAUGAGAAGGAGCGUGGUGAGACACAGGUAGGUCGCUCAUUGAAAUUGCUGUCACUAAAAUGC [#5] 322

Look up apparent KD of K4 kissing-loop reporter with K4 kissing-loop RNA reporter for this sequence: GUAUGUGGAAACACGUACUUGUAUCCUAAGCAGGAUAUGCGGAAACGCAGAAGGGCUACCAGCGAGUUUAUCCAGUGAUGUUGGA [Ex FMN A 12] 235

Look up apparent KD of K4 kissing-loop reporter with K4 kissing-loop RNA reporter for this sequence: CAACCGUAACACGAUACCAGCCUAGAAGCCAGUGAUGUUGGCCUUUUUUCGGAAAUGAAAGGCCCUUGGCAGCGUGGAUAAAAUG [Lelabiised] 464

Look up apparent KD of K4 kissing-loop reporter with K4 kissing-loop RNA reporter for this sequence: "UGUGUUUACCUGACUCAGUGAUGUUGAGAAGGAGCGUGCAAAGGCACAGGUAGGUCGCUCAACCUAAAUUCAGGUGAGCACUAAA" 331

Look up apparent KD of K4 kissing-loop reporter with K4 kissing-loop RNA reporter for this sequence: UAGAGAUCGAGAAGGAGCGAGAAAGCUAGUACAUAUGUACUAGCAAAGCAGUGAUGUUGCACUCAGGUAGGUCGCUCGAUCUCAU [AK1.1 SS Arginine B] 267

Look up apparent KD of K4 kissing-loop reporter with K4 kissing-loop RNA reporter for this sequence: UAAACCAAAUUACGUCACCUUGUCCAAUCUAAGGAUAUGUGAUUCCACAGAAGGUAGCCACGGGAGUGAUGUUCGCGUUAAGGCG [theeternabot_exclusion_KL_FMN_A_31] 388

Look up apparent KD of K4 kissing-loop reporter with K4 kissing-loop RNA reporter for this sequence: AGAUAGGGCUGAAGGAGCGUCGGAAAAGAAAAGAUGAAAUCCAGUGAUGUUGGAUAAAUCCGACAGGUAGGUCGCAGUUUUAUGA [#01 K4 Arginine B Same State] 129

Look up apparent KD of K4 kissing-loop reporter with K4 kissing-loop RNA reporter for this sequence: UUUUACGAGUGAUGUUCGUAAUGUAAUAGUUAGGAUAUCGUUUUUUCGAGAAGGAACUUCGAAGUGAUACGAAAGUAUCGCUUCG [FMN A 9] 160

Look up apparent KD of K4 kissing-loop reporter with K4 kissing-loop RNA reporter for this sequence: UAGUCUCGAGUCUGAGAUUACGGGUCAGAUACCAGACUAGAGAUAGUCCCUUGGCAGCUGAAGUUCAGUGAUGUUGAACGGAUUA [Theo B SS t10a] 394
